Let's look at some sequences and their measured furin cleavage Z-score.
# target desc: furin, P09958;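 further: purified furin at 1:10 enzyme:substrate in 50 mM HEPES pH 7.5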
# Sequence (P09958 whole entry): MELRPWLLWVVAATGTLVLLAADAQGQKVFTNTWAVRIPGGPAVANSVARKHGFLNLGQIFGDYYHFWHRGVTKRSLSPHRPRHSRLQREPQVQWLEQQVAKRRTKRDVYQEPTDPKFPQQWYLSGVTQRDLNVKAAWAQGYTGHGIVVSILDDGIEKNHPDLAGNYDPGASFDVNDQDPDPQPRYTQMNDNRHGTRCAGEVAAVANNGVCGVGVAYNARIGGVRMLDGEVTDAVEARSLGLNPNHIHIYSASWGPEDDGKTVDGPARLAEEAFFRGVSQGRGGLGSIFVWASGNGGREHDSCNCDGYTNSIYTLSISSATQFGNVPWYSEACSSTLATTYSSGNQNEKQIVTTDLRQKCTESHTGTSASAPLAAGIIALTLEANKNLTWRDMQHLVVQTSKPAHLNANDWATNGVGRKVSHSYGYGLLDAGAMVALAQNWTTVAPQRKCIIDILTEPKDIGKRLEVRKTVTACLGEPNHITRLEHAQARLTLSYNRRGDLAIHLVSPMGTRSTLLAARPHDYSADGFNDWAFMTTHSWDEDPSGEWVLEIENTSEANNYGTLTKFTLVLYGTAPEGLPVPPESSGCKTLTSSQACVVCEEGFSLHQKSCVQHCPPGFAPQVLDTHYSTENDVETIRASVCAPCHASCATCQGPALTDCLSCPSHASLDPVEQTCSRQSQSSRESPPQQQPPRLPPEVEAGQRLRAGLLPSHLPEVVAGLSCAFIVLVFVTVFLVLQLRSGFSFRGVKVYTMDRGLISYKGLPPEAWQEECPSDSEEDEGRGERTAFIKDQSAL
# assay text: furin cleavage Z-score vs untreated control; higher = more cleavage, active = 3.5 or more, inactive = 1 or less, 8 variable residues between constant flanks
# reported conditions: 15 min
This is one part of the list. The hit rate among all sequences tested is not known here.
Format: numeric value only, no unit, no commentary.

CARQRRCLPQAGNASASA [FS-2364]    0.942
CARQRRTVGQAGNASASA [FS-2367]    8.06
CARQARAVPQAGNASASA [FS-2224]    5.06
CAEVSTSTWVAGNASASA [HC2197]    0.268
CAREARAVIFAGNASASA [FS-3186]    -0.0656

[in] Please report the recorded furin cleavage Z-score for CAVVICSMSYAGNASASA [HC2024] .
[out] -0.424

[in] Let us now turn to CARHWTTQGCAGNASASA [HC309]
[out] -0.845

[in] // next record CARQARFSSQAGNASASA [FS-1915]
[out] -0.103

[in] Lookup CASRLRFDRFAGNASASA [FS-505]
[out] 0.902
